Source: paper PMC11106745

// MERS-CoV Mac1 (Middle East respiratory syndrome-related coronavirus, UniProt K9N7C7) pIC50 records
Answers are plain numbers, as −log10 of the molar value.

Below: 6 compounds and their reported pIC50.
# COMPOUND, pIC50
rows = [
    ("Nc1ncnc2c1ncn2[C@@H]1O[C@H](COP(=O)(O)OP(=O)(O)OC[C@H]2O[C@H](Oc3ccccc3)[C@H](O)[C@@H]2O)[C@@H](O)[C@H]1O", 5.74),
    ("N#C[C@@]1(c2ccc3c(N)ncnn23)O[C@H](COP(=O)(O)OP(=O)(O)OC[C@H]2O[C@H](Oc3ccccc3)[C@H](O)[C@@H]2O)[C@@H](O)[C@H]1O", 6.34),
    ("Nc1ncnc2c1ncn2[C@@H]1O[C@H](COP(=O)(O)OP(=O)(O)OC[C@H]2O[C@H](Oc3ccc(Cn4cc(COCCOCCOCCOCCNC(=O)CCCC[C@@H]5SC[C@@H]6NC(=O)N[C@@H]65)nn4)cc3)[C@H](O)[C@@H]2O)[C@@H](O)[C@H]1O", 6.51),
    ("Nc1ncnc2c1ncn2[C@@H]1O[C@H](COP(=O)(O)OP(=O)(O)OC[C@H]2O[C@H](n3cc(COCCOCCOCCOCCNC(=O)CCCC[C@@H]4SC[C@@H]5NC(=O)N[C@@H]54)nn3)[C@H](O)[C@@H]2O)[C@@H](O)[C@H]1O", 5.17),
    ("N#CC1(c2ccc3c(N)ncnn23)OC(COP(=O)(O)OP(=O)(O)OCC2OC(O)C(O)C2O)C(O)C1O (stereo not shown)", 5.54),
    ("N#C[C@@]1(c2ccc3c(N)ncnn23)O[C@H](COP(=O)(O)OP(=O)(O)OC[C@H]2O[C@H](Oc3ccc(Cn4cc(COCCOCCOCCOCCNC(=O)CCCC[C@@H]5SC[C@@H]6NC(=O)N[C@@H]65)nn4)cc3)[C@H](O)[C@@H]2O)[C@@H](O)[C@H]1O", 7.00),
]

Give a short answer stating reported pIC50 for N#C[C@@]1(c2ccc3c(N)ncnn23)O[C@H](COP(=O)(O)OP(=O)(O)OC[C@H]2O[C@H](n3cc(COCCOCCOCCOCCNC(=O)CCCC[C@@H]4SC[C@@H]5NC(=O)N[C@@H]54)nn3)[C@H](O)[C@@H]2O)[C@@H](O)[C@H]1O .
5.92
